Target: PIK3CB;PIK3CG;PIK3CD;PIK3CA (human) (UniProt P48736)
Assay: Enzyme Assay
QUANTITY: IC50 (nM)

O=C(c1nn([C@@H]2CCN(CCC3CCOCC3)C2)c2c1CS(=O)(=O)c1c(F)cccc1-2)N1CCOCC1 : 1690

(a) O=C(c1nn(-c2ccccc2)c2c1CS(=O)(=O)c1ccsc1-2)N1CCOCC1
(b) O=C(c1nn(-c2ccc(CN3CC(F)C3)cc2)c2c1CS(=O)(=O)c1ccccc1-2)N1CCOCC1
Challenge: Endpoint returns the identifier whose IC50 is numerically larger, either a or b . I would appreciate it if you answered with the label of your choice.
Response given: a
